Test system: LNCaP (prostate, carcinoma) cells
Assay Details: Cell viability assay, CellTiter-Glo (Example 21)
Format: cell-based, human
Condition: 100 nM, 72 h
Exercise: state measured LNCaP cell viability for each of the compounds provided.

Inquiry: Name the recorded LNCaP cell viability for O=C1C2=C(CCN(Cc3ccccc3)C2)N2CCN=C2N1Cc1ccc(C(F)(F)F)cc1 [I/1, reference compound] .
Reply text: 28.1 ± 1.7 % of control

Inquiry: Quick one: LNCaP cell viability of O=C1C2=C(CCN(Cc3cccc(F)c3)C2)N2CCN=C2N1Cc1ccc(F)cc1 [I/6, reference compound] ?
Reply text: 15.4 ± 2.0 % of control

Inquiry: Which LNCaP cell viability value belongs to O=C1C2=C(CCN(Cc3cc(F)cc(F)c3)C2)N2CCN=C2N1Cc1ccc(Cl)cc1 ?
Reply text: 12.7 ± 0.8 % of control

Inquiry: Request the reported LNCaP cell viability associated with O=C1C2=C(CCN(Cc3cc(F)cc(F)c3)C2)N2CCN=C2N1Cc1ccc(C(F)(F)F)cc1
Reply text: 11.4 ± 0.6 % of control

Inquiry: Returns the measured LNCaP cell viability for the input compound. Input: O=C1C2=C(CCN(Cc3cccc(F)c3)C2)N2CCN=C2N1Cc1ccc(C(F)(F)F)cc1 [I/3, reference compound]
Reply text: 13.8 ± 1.7 % of control
